growth by entry:
Tested on: RPMI-8226 leukemia
Method Notes: NCI-60 one-dose screen, 48 h (100 = growth as untreated, 0 = no growth, -100 = all killed)
Applied Conditions: 10 µM
This is part of a sample that, as a whole, favours compounds with a hit. Of some 83,000 tested, about 20% had one in any assay.
Number in %, nothing else.

Answered cases to consult:
Q. Sample Cc1cccc(CO)c1 — what was its growth?
A. 114

Q. Please give the result for CN(C)C(=O)Oc1cccc([N+](C)(C)C)c1 too.
A. 117

Q. Next compound up: O=c1cc(-c2ccccc2)oc2c1ccc1ccccc12
A. 77.8

Q. Item: Cc1cc(C)cc(NCCC#N)c1
A. 106

Q. Try this compound too: COC(=O)/C=C1\Sc2cc(F)ccc2NC1=O
A. 92

More entries:
Q. Could you share which growth value was measured for O=C(O)c1ccccc1NCc1ccco1 ?
A. 79.1

Q. Now give it for O=[N+]([O-])c1ccc(Sc2ccncn2)c([N+](=O)[O-])c1 too.
A. 40

Q. Entry CCCCNC(=O)C(=O)NCCCC please
A. 106

Q. Ok, now CC(CN1CCCCC1)NC(=O)c1scnc1-c1ccccc1 (stereo not drawn)
A. 101

Q. Further, for Cc1ccc(/C=C2\SC(=S)N(c3ccc(F)cc3)C2=O)o1 ?
A. 86.4

Q. Now the compound S=C1CCCCCN1
A. 98.3

Q. What about this compound? CC1(C(N)=O)CCC(C(=O)O)C1(C)C (stereo not drawn)
A. 100

Q. How about Nc1ncnc2c1nc(N)n2C1OC(CO)C(O)C1O (stereo not drawn) ?
A. 5.98

* * *

Reported growth values for the following compounds.
Tested on: SK-MEL-5 melanoma
Method Notes: NCI-60 one-dose screen, 48 h (100 = growth as untreated, 0 = no growth, -100 = all killed)
Applied Conditions: 10 µM
Experimental: Growth inhibition of the SK-MEL-5 human tumor cell line is measured as a screen for anti-cancer activity. Cells are grown in 96 well plates and exposed to the test compound for 48 hours. Compounds are tested at a single concentration, which is 10^-5 M for most compounds. The reported endpoint is percent growth (GI% or GIPRCNT), where numbers from 0 - 100% represent growth inhibition, and numbers from -100% - 0 represent cell death. For example, a value of 40 represents 60% growth inhibition. […]
About 83,000 compounds went through this panel and 20% of them were active in at least one assay; those are over-represented in the sample as a whole.
Report the figure in % without appending any unit label.

The following compounds have reported results that may help.
Q. Find the recorded growth belonging to C/C(=N\NC(=O)c1ccccc1N)c1ccccc1O and report it.
A. 60.5

Q. What do you get for CN(C)c1nc2c([nH]1)c(=O)n(C)c(=O)n2C ?
A. 101

Q. Query O=S(=O)(O)c1cc(O)c2c(N=Cc3ccccc3O)c(S(=O)(=O)O)ccc2c1 next
A. 103

Q. Here is the next compound: CC1OC(Oc2c(-c3ccc(O)c(O)c3)oc3cc(O)cc(O)c3c2=O)C(O)C(O)C1O (stereo unspecified)
A. 91.8

Next:
Q. Any idea what growth was measured for CCCCC(=O)c1ccc(OC)cc1 ?
A. 96.5

Q. Further, for COC(=O)c1ccccc1N(C)C ?
A. 101

Q. Then this compound: O=[N+]([O-])c1ccc(/C=C/C=C/c2ccccc2)c(Cl)c1
A. 101

Q. Please give the result for CCCCNC1(C#N)CCN(Cc2ccccc2)CC1 too.
A. 107

Q. Repeat for the following compound: C=CCCCCCCCCCOC(C)=O
A. 101

Q. Field entry: COc1cccc(Sc2ccc([N+](=O)[O-])c3no[n+]([O-])c23)c1
A. 88.9

Q. Record: N#CSc1cc(S(N)(=O)=O)ccc1N
A. 101

Q. One more compound: Cc1ccncc1C(N)=O
A. 100

Q. Similarly, COCCOCCCl ?
A. 92.1

Q. Try CC[N+](C)(CC)CCO next.
A. 101

Q. Another compound: CC(=O)Cc1cc(-c2cc(CC(C)=O)[nH]n2)n[nH]1
A. 99.6

Q. Can you check O=C1Cc2cc(O)ccc2O1 next?
A. 101

Q. Now this one: NC(C(=O)O)c1ccc([N+](=O)[O-])cc1 (stereo unspecified)
A. 105

Q. Then what about the compound O=S(=O)(Cc1ccccc1)c1ccccc1 ?
A. 104

Q. # iterate: Nc1nc(OCc2ccccc2)c2[nH]cnc2n1
A. 94

Q. Let us now turn to O=[N+]([O-])c1ccc(N=Nc2ccccc2)cc1
A. 99

Q. Repeat for the following compound: O=c1cc(-c2ccccc2)[nH]c(=S)[nH]1
A. 104

Q. Please do the same for CCCCC1(CC)COC(CCC)OC1 (stereo unspecified) as well.
A. 103

Q. Please give the result for COC(=O)/C=C/C(=O)NC(N)=O too.
A. 104

* * *

Below, each entry is listed with its recorded growth.
System: SNB-75 CNS
Method Notes: NCI-60 one-dose screen, 48 h (100 = growth as untreated, 0 = no growth, -100 = all killed)
Applied Conditions: 10 µM
Experimental: Growth inhibition of the SNB-75 human tumor cell line is measured as a screen for anti-cancer activity. Cells are grown in 96 well plates and exposed to the test compound for 48 hours. Compounds are tested at a single concentration, which is 10^-5 M for most compounds. The reported endpoint is percent growth (GI% or GIPRCNT), where numbers from 0 - 100% represent growth inhibition, and numbers from -100% - 0 represent cell death. For example, a value of 40 represents 60% growth inhibition. […]
This is part of a sample that, as a whole, favours compounds with a hit. Of some 83,000 tested, about 20% had one in any assay.
Use % as the unit, but write only the number.

Worked set:
Q. # get_value(readout='growth', item= CCS(=O)(=O)CCCl )
A. 123

Q. Record: CCOC(=O)c1cc2cccc(OC)c2oc1=O
A. 99.5

Continuing:
Q. Fill in: growth of O=C(O)CCC(NC(=O)OCc1ccccc1)C(=O)O (stereo not drawn) is ___
A. 99.5

Q. // repeat for O=C(Cc1nc2ccc([N+](=O)[O-])cc2nc1CC(=O)c1ccccc1)c1ccccc1 and report
A. 65.2

Q. Likewise for O=C(CS)Nc1ccc2ccccc2c1 ?
A. 112

Q. And what about the compound O=C1OC(c2ccc(F)cc2)CC1CN1CCOCC1 (stereo not drawn) ?
A. 89.1

Q. And for CCCCN(CCCC)CCCO ?
A. 86.7

Q. # repeat for N#CCCc1ccc(O)cc1
A. 88.3

Q. // same read-out, input: CS(=O)CC1=NC(=N)N=C1CS(C)=O (stereo not drawn)
A. 97.7

Q. Also need CC1(O)CCCCC1O (stereo not drawn) , thanks.
A. 96.5

* * *

Tested on: MDA-MB-435 melanoma
Method Notes: NCI-60 one-dose screen, 48 h (100 = growth as untreated, 0 = no growth, -100 = all killed)
Applied Conditions: 10 µM
This is part of a sample that, as a whole, favours compounds with a hit. Of some 83,000 tested, about 20% had one in any assay.
Readout Name: growth (%)
Give a bare numeral; the unit % is implied.

Reference set (2 entries):
Q. Given CCOC(=O)C(O)C(O)C(=O)OCC (stereo not drawn) , state its recorded growth.
A. 108

Q. And the next one, S=C1NCc2cncnc2N1 ?
A. 101

Then this molecule:
Q. Record request: growth value, item CC(=O)c1c[nH]c2ccccc12
A. 97.5

* * *

System: A498 renal
Method Notes: NCI-60 one-dose screen, 48 h (100 = growth as untreated, 0 = no growth, -100 = all killed)
Applied Conditions: 10 µM
Compounds without any hit were thinned out: in the full panel of roughly 83,000, 20% have a hit.
Quick list: growth per entry.
Response body: numeric value in %, unit text excluded.

Before answering, review these 6 worked examples.
Q. Fill in the blank: the reported growth of Cc1cc2nc(CC(=O)c3cccc([N+](=O)[O-])c3)c(=O)[nH]c2cc1C is ____.
A. 127

Q. Then what about the compound Cc1ccc(Cl)cc1NC(=O)N(C)CCO ?
A. 111

Q. Subsequent entry: Cc1cc(Cc2cc(C)c(N)cc2N)c(N)cc1N
A. 98.8

Q. Can you handle O=c1cc(-c2ccccc2)[nH]c2c1CCCC2 next?
A. 19.2

Q. Could you do the same for COc1ccc(-c2cc3c(nn2)-c2ccccc2C3=O)cc1 , please?
A. 102

Q. Next compound: CCO/C=C1\SC(=S)N(c2cccc(C)c2)C1=O
A. 113

Further cases:
Q. Need growth of NC(=O)c1ccc(N=C(N)N=C(N)N)cc1 , thanks.
A. 106

* * *

Test system: KM12 colon
Method Notes: NCI-60 one-dose screen, 48 h (100 = growth as untreated, 0 = no growth, -100 = all killed)
Applied Conditions: 10 µM
About 83,000 compounds went through this panel and 20% of them were active in at least one assay; those are over-represented in the sample as a whole.
growth by entry:
Kindly provide the numeric value in % only, without the unit symbol.

Q. Need growth of CCC(C)(O)c1ccc(C)cc1 (stereo not given) , thanks.
A. 100

Q. Now try CC(C)C(C#N)(C(C)C)C(C)C .
A. 103

Q. Follow-up entry: O=C1C[C@H](c2ccccc2)[C@H](c2ccccc2)C1
A. 115

Q. // repeat for CC(C)(C)n1nc(C2CC2)c(Br)c1NC(=O)c1ccccc1F and report
A. 98.5

Q. Another molecule: C=CCNC(=O)c1ccc(OC)cc1
A. 122

Reference source: PubChem BioAssay (NCI)
